test: forskolin-driven CRE-LacZ activity in PC12 – cell-based, CRE-LacZ reporter, forskolin-stimulated, primary screen (AID 1146); settings: luminescence, 4.5 h, higher = more signal, called active from +8 up or from −8 down;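 also: PC12 cells with 6xCRE LacZ reporter stimulated by forskolin 10 µM; beta-galactosidase reporter signal reflecting CREB driven transcription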
reported-metric: z-score
Lab note: write the figure by itself, no unit.

// Input: COC(=O)[C@@]1(Cc2ccccc2)[C@H]2c3cc(C(=O)N4CCCC4)n(Cc4ccc(OC)c(OC)c4)c3C[C@H]2CN1C(=O)c1ccccc1 . Output its z-score only.
0.208

Report measured z-score; entry is Cc1ccc(C(C)CC(O)C2C=CC3C(=O)N(C)C(=O)C3N2Nc2ccccc2)o1 (centres undefined)
0.471

Identify measured z-score corresponding to CC(C)(C)OC(=O)CC[C@]1(C(=O)NCC(O)CO)N=C(c2ccc(OCCCO)cc2)O[C@H]1c1ccccc1N=[N+]=[N-] (some centres undefined)
-1.48

Please give measured z-score of the following entry: C=CCOC(=O)[C@H]1[C@@H]2C(=O)O[C@@H](c3ccccc3)[C@@H](c3ccccc3)N2[C@@H](c2ccc(OCCOC(=O)[C@@H]3C[C@@H]4C(=O)N[C@@H](CCCCNC(C)=O)C(=O)N4[C@@H]3c3cccc(OCCO)c3)cc2)[C@]12C(=O)Nc1ccccc12
-0.656

Quote z-score reported for COCCOC(=O)N1C(=O)[C@@]2(c3cc(C#CCCO)ccc31)[C@H](C(N)=O)[C@H]1C(=O)O[C@H](c3ccccc3)[C@H](c3ccccc3)N1[C@@H]2c1ccccc1OCCO please.
-0.29

Provide only the value of recorded z-score for O=C1NC(=O)C2C1C=CC(C(O)c1ccc(B(O)O)cc1)N2Nc1ccc(Cl)cc1Cl (centres undefined)
0.763

Specify reported z-score for the molecule shown: CN1C(=O)C2C(C3CC3)C=C3CN(Cc4cccc(Cl)c4)[C@@H]([C@@H](O)Cc4ccccc4)C3C2C1=O (some centres undefined)
0.349

Output z-score of CC(C)NC(=O)[C@@]1(C)c2ccccc2C(=O)N(Cc2ccccc2)[C@H]1c1ccc(CO)cc1
-1.08

Determine from records and report z-score for O=C1O[C@@H](c2ccccc2)[C@@H](c2ccccc2)N2[C@@H](c3ccccc3OCCO)[C@]3(C(=O)Nc4ccc(C#CCCO)cc43)[C@@H](C(=O)NC[C@H](O)c3ccccc3)[C@H]12
0.717

Return the recorded z-score value; entry: C=CC1c2cc(O)c(OC)cc2CCN1C (centres undefined)
-0.439

Query z-score for COc1ccc([Si](C)(C)[C@@H]2[C@@H](CC(=O)N(CCO)Cc3ccccc3)O[C@]3(C(=O)N(Cc4ccc(N5C(=O)c6cccc7cccc5c67)cc4)c4ccccc43)[C@H]2C)cc1
-0.204

Using the record for CCCC#C[Si](O[C@H](CC)c1cn(Cc2ccccc2)nn1)(C(C)C)C(C)C , state its measured z-score.
0.04

Look up and state reported z-score for COc1cc(C(O)C2C=CC3C(=O)N(c4ccccc4)C(=O)C3N2Nc2ccccc2F)cc(OC)c1OC (centres undefined)
1.05

# return recorded z-score for entry COC(=O)c1cccc([C@H]2OC(=CC(=O)OC(C)C)C[C@@H](c3cccc(C(=O)OC)c3)O2)c1
1.05
